assayProtocol: Example 1: ocular tissue pharmacokinetics after topical dose, increasing dose volume at constant drug concentration
Format: in vivo, pigmented male rabbits (Dutch Belted)
condition: male, Dutch Belted, rabbit, topical or ocular, 3 ug; Cornea; 30 μL of 0.1 mg/mL suspension (3 μg), topical ocular
valueType: Tmax
# output: number + unit

Ask: Look up and state reported Tmax for Cc1ccc2c(NCC(O)(CC(C)(C)c3cc(F)cc4c3OCC4)C(F)(F)F)cccc2n1 (stereo not shown)
Reply: 4.98 min

====

assayProtocol: Example 2: ocular tissue pharmacokinetics after topical dose, decreasing dose volume at same total amount of drug
Type: in vivo, New Zealand Composite pigmented rabbits
condition: New Zealand Composite pigmented, rabbit, aqueous humor, topical or ocular, 10 ug; 100 μL/eye of 0.1 mg/mL (10 μg), topical ocular
valueType: Tmax (h)
Dear colleague, please return just the value in h, with no unit written.

Ask: Look up and state reported Tmax for Cc1ccc2c(NCC(O)(CC(C)(C)c3cc(F)cc4c3OCC4)C(F)(F)F)cccc2n1 (stereo not shown)
Reply: 2

====

assayProtocol: Example 2: ocular tissue pharmacokinetics after topical dose, decreasing dose volume at same total amount of drug
Type: in vivo, New Zealand Composite pigmented rabbits
condition: New Zealand Composite pigmented, rabbit, iris/ciliary body, topical or ocular, 10 ug; 100 μL/eye of 0.1 mg/mL (10 μg), topical ocular
valueType: Cmax (ng/g)
Dear colleague, please return just the value in ng/g, with no unit written.

Ask: Look up and state reported Cmax for Cc1ccc2c(NCC(O)(CC(C)(C)c3cc(F)cc4c3OCC4)C(F)(F)F)cccc2n1 (stereo not shown)
Reply: 5.92

====

assayProtocol: Example 2: ocular tissue pharmacokinetics after topical dose, decreasing dose volume at same total amount of drug
Format: in vivo, New Zealand Composite pigmented rabbits
condition: New Zealand Composite pigmented, rabbit, conjunctiva, topical or ocular, 10 ug; 30 μL/eye of 0.33 mg/mL (10 μg), topical ocular
valueType: Cmax
# output: number + unit

Ask: Look up and state reported Cmax for Cc1ccc2c(NCC(O)(CC(C)(C)c3cc(F)cc4c3OCC4)C(F)(F)F)cccc2n1 (stereo not shown)
Reply: 450 ng/g

====

assayProtocol: Example 1: ocular tissue pharmacokinetics after topical dose, increasing dose volume at constant drug concentration
Assay type: in vivo, pigmented male rabbits (Dutch Belted)
condition: male, Dutch Belted, rabbit, topical or ocular, 1 ug; Iris/Ciliary Body; 10 μL of 0.1 mg/mL suspension (1 μg), topical ocular
valueType: Tmax (h)
Dear colleague, please return just the value in h, with no unit written.

Ask: Look up and state reported Tmax for Cc1ccc2c(NCC(O)(CC(C)(C)c3cc(F)cc4c3OCC4)C(F)(F)F)cccc2n1 (stereo not shown)
Reply: 1

====

assayProtocol: Example 1: ocular tissue pharmacokinetics after topical dose, increasing dose volume at constant drug concentration
Assay type: in vivo, pigmented male rabbits (Dutch Belted)
condition: male, Dutch Belted, rabbit, topical or ocular, 3 ug; Cornea; 30 μL of 0.1 mg/mL suspension (3 μg), topical ocular
valueType: Cmax (ng/g)
Dear colleague, please return just the value in ng/g, with no unit written.

Ask: Look up and state reported Cmax for Cc1ccc2c(NCC(O)(CC(C)(C)c3cc(F)cc4c3OCC4)C(F)(F)F)cccc2n1 (stereo not shown) [BOL-303242-X]
Reply: 716

====

assayProtocol: Example 1: ocular tissue pharmacokinetics after topical dose, increasing dose volume at constant drug concentration
Assay type: in vivo, pigmented male rabbits (Dutch Belted)
condition: male, Dutch Belted, rabbit, topical or ocular, 10 ug; Cornea; 100 μL of 0.1 mg/mL suspension (10 μg), topical ocular
valueType: Cmax (ng/g)
Dear colleague, please return just the value in ng/g, with no unit written.

Ask: Look up and state reported Cmax for Cc1ccc2c(NCC(O)(CC(C)(C)c3cc(F)cc4c3OCC4)C(F)(F)F)cccc2n1 (stereo not shown) [BOL-303242-X]
Reply: 955

Data provenance is patent US20130177609A1.
